Test: Solubility of the compound in Solutol HS-15
Type: physicochemical
readout: solubility (µg/mL)
Numbers only, in µg/mL.

Query block: Which value of solubility has been reported for C[C@H]1CCC/C=C/[C@@H]2C[C@H](O)C[C@H]2[C@H](OC(=O)c2cccnc2)/C=C/C(=O)O1 in the records?
Result block: 2000

###

Assay: Cmax in Sprague-Dawley rat at 5 mg/kg, iv measured upto 24 hrs
Type: ADME, organism-based
Details: in vivo
readout: Cmax
Report the figure along with its unit, number first.

Query block: Which value of Cmax has been reported for C[C@H]1CCC/C=C/[C@@H]2C[C@H](O)C[C@H]2[C@H](OC(=O)c2cccnc2)/C=C/C(=O)O1 in the records?
Result block: 1460 ng/mL

###

Test system: Huh-7
Assay: Antiproliferative activity against human Huh-7 cells assessed as inhibition of cell proliferation measured after 72 hrs by MTT assay
Format: functional, cell-based
Conditions: Huh-7, 72 h
Answer each item with its documented IC50.
Answers are plain numbers, in nM.

C[C@H]1CCC/C=C/[C@@H]2C[C@H](O)C[C@H]2[C@H](OC(=O)c2cccnc2)/C=C/C(=O)O1    1000

Parameter requested: IC50. Apply to each item below.
1. COc1cccc2c1C(=O)c1c(O)c3c(c(O)c1C2=O)C[C@@](O)(C(=O)CO)C[C@@H]3O[C@H]1C[C@H](N)[C@H](O)[C@H](C)O1
2. C[C@H]1CCC/C=C/[C@@H]2C[C@H](O)C[C@H]2[C@H](O)/C=C/C(=O)O1

Result block:
1. 620
2. 180

###

Test system: HCT-116
Assay: Antiproliferative activity against human HCT-116 cells assessed as inhibition of cell proliferation measured after 72 hrs by MTT assay
Assay type: functional, cell-based
Details: HCT-116, 72 h
Answer each item with its documented IC50.
Numbers only, in µM.

C[C@H]1CCC/C=C/[C@@H]2C[C@H](O)C[C@H]2[C@H](O)/C=C/C(=O)O1    0.1

Consider the additional molecule presented here.
Query block: Which value of IC50 has been reported for C[C@H]1CCC/C=C/[C@@H]2C[C@H](O)C[C@H]2[C@H](OC(=O)c2cccnc2)/C=C/C(=O)O1 in the records?
Result block: 0.58
